These entries and their values trace back to the supplement of paper PMC7840683.

test system: HepaRG; assay: LDH release cytotoxicity, % of total lysis control; higher = more cytotoxic; settings: 0.1 µM; 48 h
TEST_READOUT: LDH release cytotoxicity (%)
Note: unit % is implicit; provide only the numeric part.

MOLECULE	EXPERIMENTAL_TARGET	UNITS_SYMBOL	LDH release cytotoxicity
CC(C)=CC1C(C(=O)OCc2coc(Cc3ccccc3)c2)C1(C)C (stereo not given) [Resmethrin]	HepaRG	%	-0.737
O=NO [Sodium nitrite]	HepaRG	%	0.52
CC(C)=CC1C(C(=O)OCN2C(=O)C3=C(CCCC3)C2=O)C1(C)C (stereo not given) [Tetramethrin]	HepaRG	%	-1.73
CCN1CCC2(CC1)COc1cc3c(cc12)N(C(=O)c1ccc(-c2ccc(-c4nnc(C)o4)cc2C)cc1)CC3	HepaRG	%	-2.94

Next molecule, LDH release cytotoxicity to be filled in.
Q: Recorded LDH release cytotoxicity of CC(N)=O [Acetamide] , please.
A: -0.0289
